- system-tested: UniProt P08588
- Sequence (P08588 whole entry): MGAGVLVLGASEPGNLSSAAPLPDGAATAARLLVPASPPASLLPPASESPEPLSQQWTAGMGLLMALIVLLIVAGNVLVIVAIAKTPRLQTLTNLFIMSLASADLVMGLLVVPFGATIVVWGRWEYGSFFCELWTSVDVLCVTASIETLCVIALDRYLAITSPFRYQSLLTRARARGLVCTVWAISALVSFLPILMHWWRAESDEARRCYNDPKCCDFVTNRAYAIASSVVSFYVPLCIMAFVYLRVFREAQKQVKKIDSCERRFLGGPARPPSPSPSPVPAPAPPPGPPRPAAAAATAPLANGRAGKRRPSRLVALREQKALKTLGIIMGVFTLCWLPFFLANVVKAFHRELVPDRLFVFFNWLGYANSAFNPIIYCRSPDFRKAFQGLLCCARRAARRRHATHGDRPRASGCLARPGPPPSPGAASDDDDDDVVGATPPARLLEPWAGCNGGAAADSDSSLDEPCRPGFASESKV
pKi: −log10 of the molar value.
readout: pKi

a: CC(C)(Cc1c[nH]c2ccccc12)NCC(O)COc1ccccc1C#N (centres unmarked)
b: CC(C)(C)NCC(O)COc1cccc2c1CC(O)C(O)C2 (centres unmarked)
// which entry reports the smaller pKi, a or b ? Field: selected label. Fill in the label of the entry you choose.
b
